Hello, the source for this data is patent US9199962B2, in case you need it.

I'd be grateful if you could share measured IC50 for these entries.
Molecular target: GST-FAK (N-terminal GST fusion with truncated human FAK (376-1052 (end) amino acids)) (Homo sapiens, UniProt Q05397)
Construct: truncated human FAK (376-1052 (end) amino acids)
Sequence (Q05397 376-1052): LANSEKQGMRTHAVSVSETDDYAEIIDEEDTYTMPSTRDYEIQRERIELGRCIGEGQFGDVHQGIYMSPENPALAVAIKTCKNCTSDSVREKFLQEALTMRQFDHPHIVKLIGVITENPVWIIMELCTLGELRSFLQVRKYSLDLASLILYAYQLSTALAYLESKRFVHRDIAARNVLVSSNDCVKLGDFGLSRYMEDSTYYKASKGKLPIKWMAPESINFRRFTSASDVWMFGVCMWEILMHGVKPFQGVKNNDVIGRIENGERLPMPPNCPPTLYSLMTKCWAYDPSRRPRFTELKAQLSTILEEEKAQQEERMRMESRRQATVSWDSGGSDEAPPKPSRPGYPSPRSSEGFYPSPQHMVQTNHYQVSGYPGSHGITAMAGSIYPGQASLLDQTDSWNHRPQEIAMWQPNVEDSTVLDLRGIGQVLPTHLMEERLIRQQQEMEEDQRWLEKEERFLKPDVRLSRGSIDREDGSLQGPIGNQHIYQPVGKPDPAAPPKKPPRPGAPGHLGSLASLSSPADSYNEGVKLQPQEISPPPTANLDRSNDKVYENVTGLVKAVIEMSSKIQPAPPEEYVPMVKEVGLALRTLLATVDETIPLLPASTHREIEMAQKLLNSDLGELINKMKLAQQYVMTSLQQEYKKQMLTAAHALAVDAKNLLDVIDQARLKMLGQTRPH
Test: Biochemical enzyme assay for FAK activity (Caliper LC3000 mobility shift)
Conditions: Table 2; 100 uM ATP; read-out: FAK IC50

Task: What IC50 value was documented for this compound, CN1CCC(NC(=O)c2cc(NCc3ccc(F)cc3F)nc(-c3cncc(C(F)(F)F)c3)n2)CC1 [Compound 54] ?
Result: < 100 nM

Task: What IC50 value was documented for this compound, OCC(Nc1ccnc(-c2cncc(C(F)(F)F)c2)n1)c1ccccc1 (stereo not shown) [Compound 67] ?
Result: 100 to 1000 nM

Task: What IC50 value was documented for this compound, NC(=O)C1CCN(c2cc(NCc3ccc(F)cc3F)nc(-c3cncc(C(F)(F)F)c3)n2)CC1 [Compound 59] ?
Result: 100 to 1000 nM

Task: What IC50 value was documented for this compound, O=C1CCCN1CCCNc1cc(NCc2ccc(F)cc2F)nc(-c2cncc(C(F)(F)F)c2)n1 [Compound 57] ?
Result: 100 to 1000 nM

Task: What IC50 value was documented for this compound, O=C(NCCc1cccnc1)c1cc(NCc2ccc(F)cc2F)nc(-c2cncc(C(F)(F)F)c2)n1 [Compound 70] ?
Result: < 100 nM

Task: What IC50 value was documented for this compound, Fc1ccc(CNc2cc(NC3CCNCC3)nc(-c3cncc(C(F)(F)F)c3)n2)c(F)c1 [Compound 66] ?
Result: 100 to 1000 nM

Task: What IC50 value was documented for this compound, CN(C)CCCNc1cc(NCc2ccc(F)cc2F)nc(-c2cncc(C(F)(F)F)c2)n1 [Compound 60] ?
Result: < 100 nM

====

I'd be grateful if you could share measured pIC50 for these entries.
Molecular target: GST-FAK (N-terminal GST fusion with truncated human FAK (376-1052 (end) amino acids)) (Homo sapiens, UniProt Q05397)
Construct: truncated human FAK (376-1052 (end) amino acids)
Assay: Biochemical enzyme assay for FAK activity (Caliper LC3000 mobility shift)
Conditions: Table 1; 100 uM ATP; read-out: FAK IC50
pIC50: −log10 of the molar value.

Task: What pIC50 value was documented for this compound, O=C(c1cncc(-c2nccc(NCc3cccc(Oc4cnccn4)c3)n2)c1)N1CCOCC1 [Compound 23] ?
Result: < 5.00

Task: What pIC50 value was documented for this compound, Fc1cc(Cl)ccc1CNc1ccnc(-c2cncc(Cl)c2)n1 [Compound 32] ?
Result: > 7.00

Task: What pIC50 value was documented for this compound, COc1ccc(CNc2ccnc(-c3cncc(F)c3)n2)c(F)c1F [Compound 21] ?
Result: 5.00 to 6.00

Task: What pIC50 value was documented for this compound, Clc1cncc(-c2nccc(NCc3ccc(N4CCOCC4)cc3)n2)c1 [Compound 20] ?
Result: < 5.00

Task: What pIC50 value was documented for this compound, Fc1cncc(-c2nccc(NCc3cccc(Oc4cnccn4)c3)n2)c1 [Compound 9] ?
Result: < 5.00

Task: What pIC50 value was documented for this compound, FC(F)(F)c1cncc(-c2nccc(NCc3cccc(Oc4cnccn4)c3)n2)c1 [Compound 27] ?
Result: < 5.00

Task: What pIC50 value was documented for this compound, Fc1cncc(-c2nccc(NCc3ccc4c(c3)OCCO4)n2)c1 [Compound 12] ?
Result: < 5.00

Task: What pIC50 value was documented for this compound, Fc1ccc(CNc2ccnc(-c3cncc(Cl)c3)n2)cc1 [Compound 39] ?
Result: 6.00 to 7.00

Task: What pIC50 value was documented for this compound, COc1ccc(CNc2ccnc(-c3cncc(C(F)(F)F)c3)n2)c(F)c1F [Compound 24] ?
Result: 5.00 to 6.00

Task: What pIC50 value was documented for this compound, COc1cncc(-c2nccc(NCc3ccc(Oc4ccc(F)cc4)cc3)n2)c1 [Compound 2] ?
Result: < 5.00

====

I'd be grateful if you could share measured IC50 for these entries.
Molecular target: GST-FAK (N-terminal GST fusion with truncated human FAK (376-1052 (end) amino acids)) (Homo sapiens)
Construct: truncated human FAK (376-1052 (end) amino acids)
Experiment: Biochemical enzyme assay for FAK activity (Caliper LC3000 mobility shift)
Details: Table 3; 100 uM ATP; read-out: FAK IC50

Task: What IC50 value was documented for this molecule, `Clc1cncc(-c2nccc(NCc3cccc4nsnc34)n2)c1` ?
Result: < 100 nM

Task: What IC50 value was documented for this molecule, `Cc1ccccc1CNc1ccnc(-c2cccnc2N)n1` ?
Result: 1000 to 10000 nM

Task: What IC50 value was documented for this molecule, `Nc1ncccc1-c1nccc(NCc2cccc3nsnc23)n1` ?
Result: 100 to 1000 nM

Task: What IC50 value was documented for this molecule, `C[C@H](Nc1ccnc(-c2cccnc2N)n1)c1ccccc1C(F)(F)F` ?
Result: 1000 to 10000 nM
